# System: 874868-142-R-J2-PDC complex spheroids, growth % test/control
# procedure summary: Anticancer human tumor 874868-142-R-J2-PDC patient-derived head and neck squamous carcinoma cell line growth inhibition [CLK]
# experimental conditions: second compound 0.0316 µM; first compound 0.1 µM; hits give low values
Binarize viability, T/C at 80%; below is met, at or above is not met.

Check if viability, T/C falls below 80% for COc1ccc([C@@H](O)c2cc(-c3ncnc4cc(N5CCOCC5)ccc34)c(F)cc2Cl)nn1 + CNC(=O)c1ccc(Nc2nc(OC3CCCC3)c3c(-c4ccc5nc(C)oc5c4)c[nH]c3n2)c(OC)c1 .
not met

Check if viability, T/C falls below 80% for C#Cc1c(F)ccc2cc(O)cc(-c3ncc4c(N5CC6CCC(C5)N6)nc(OCC56CCCN5CC(F)C6)nc4c3F)c12 (stereo unspecified) + CNC(=O)c1ccc(Nc2nc(OC3CCCC3)c3c(-c4ccc5nc(C)oc5c4)c[nH]c3n2)c(OC)c1 .
met

Check if viability, T/C falls below 80% for O=c1[nH]cc(F)c(=O)[nH]1 + CN1CCN(c2cc(C(=O)Nc3cc4cc(-c5cnn(C)c5)ccc4cn3)ccn2)CC1 .
met

Now consider a different molecule.
Check if viability, T/C falls below 80% for CC(CO)NC(=O)c1cc(-c2ccc(Cl)cc2)nn(-c2cnn(C)c2)c1=O (stereo unspecified) + CN1CCN(c2cc(C(=O)Nc3cc4cc(-c5cnn(C)c5)ccc4cn3)ccn2)CC1 .
not met

###

# Test system: 874868-142-R-J2-PDC complex spheroids, growth % test/control
# procedure summary: Anticancer human tumor 874868-142-R-J2-PDC cell line growth inhibition [CLK]; active = viability on the fitted dose curve at most 10% of control; inactive = the rest;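 also: spheroids exposed to the compounds for 7 days; 100% = DMSO vehicle control viability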
# experimental conditions: second compound 3.16 µM; first compound 0.03 µM
Reply using exactly one outcome from active, inactive

Test call, this compound: CC(C)CC(NC(=O)C(Cc1ccccc1)NC(=O)c1cnccn1)B(O)O (stereo not drawn) + CNC(=O)c1ccc(Nc2nc(OC3CCCC3)c3c(-c4ccc5nc(C)oc5c4)c[nH]c3n2)c(OC)c1
active

Test call, this compound: NC(=O)C(=Cn1cnc(-c2cc(C(F)(F)F)cc(C(F)(F)F)c2)n1)c1cncnc1 + CNC(=O)c1ccc(Nc2nc(OC3CCCC3)c3c(-c4ccc5nc(C)oc5c4)c[nH]c3n2)c(OC)c1
inactive

Now consider a different compound.
Test call, this compound: CC(C)CC(NC(=O)C(Cc1ccccc1)NC(=O)c1cnccn1)B(O)O (stereo not drawn) + CN1CCN(c2cc(C(=O)Nc3cc4cc(-c5cnn(C)c5)ccc4cn3)ccn2)CC1
active

###

# Tested on: 874868-142-R-J2-PDC complex spheroids, growth % test/control
# procedure summary: Anticancer human tumor 874868-142-R-J2-PDC cell line growth inhibition [CLK];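 also: spheroids exposed to the compounds for 7 days; 100% = DMSO vehicle control viability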
# experimental conditions: second compound 0.316 µM; first compound 0.00316 µM; hits give low values
# Excerpt: A high-throughput screen of multi-cell type tumor spheroids was designed to identify active combinations of […] and targeted small molecules. Complex spheroids include a stromal component modeled by human endothelial cells (HUVEC) and fibroblasts modeled by human mesenchymal stem cells (MSCs). […] Compounds. […] If the clinical Cmax for an agent had not been determined, the highest concentration tested was 10 microM. […]
Give measured viability, T/C for each item. Keep answers brief.
Answers are plain numbers, in %.

Look at each molecule and report its viability, T/C.
1. COc1c(OCCCN2CCOCC2)ccc2c3n(c(=NC(=O)c4cnc(N)nc4)nc12)CCN3 + CN1CCN(c2cc(C(=O)Nc3cc4cc(-c5cnn(C)c5)ccc4cn3)ccn2)CC1
2. CCc1c2c(nc3ccc(O)cc13)-c1cc3c(c(=O)n1C2)COC(=O)[C@]3(O)CC + CNC(=O)c1ccc(Nc2nc(OC3CCCC3)c3c(-c4ccc5nc(C)oc5c4)c[nH]c3n2)c(OC)c1
3. CCN1CCN(Cc2ccc(Nc3ncc(F)c(-c4cc(F)c5nc(C)n(C(C)C)c5c4)n3)nc2)CC1 + CNC(=O)c1ccc(Nc2nc(OC3CCCC3)c3c(-c4ccc5nc(C)oc5c4)c[nH]c3n2)c(OC)c1

1: 19.1; 2: 42.9; 3: 59.4

Look at each molecule and report its viability, T/C.
1. CCc1c2c(nc3ccc(O)cc13)-c1cc3c(c(=O)n1C2)COC(=O)[C@]3(O)CC + CN1CCN(c2cc(C(=O)Nc3cc4cc(-c5cnn(C)c5)ccc4cn3)ccn2)CC1
2. Cn1ncnc1[C@H]1c2n[nH]c(=O)c3cc(F)cc(c23)N[C@@H]1c1ccc(F)cc1 + CN1CCN(c2cc(C(=O)Nc3cc4cc(-c5cnn(C)c5)ccc4cn3)ccn2)CC1

1. 12.2
2. 16.2

Look at each molecule and report its viability, T/C.
1. CCN1CCN(Cc2ccc(Nc3ncc(F)c(-c4cc(F)c5nc(C)n(C(C)C)c5c4)n3)nc2)CC1 + CN1CCN(c2cc(C(=O)Nc3cc4cc(-c5cnn(C)c5)ccc4cn3)ccn2)CC1
2. Cn1ncnc1[C@H]1c2n[nH]c(=O)c3cc(F)cc(c23)N[C@@H]1c1ccc(F)cc1 + CNC(=O)c1ccc(Nc2nc(OC3CCCC3)c3c(-c4ccc5nc(C)oc5c4)c[nH]c3n2)c(OC)c1

1: 22.7; 2: 51.5
